assay: Decomposition of 2-bromo-benzenesulfonamidyl-alkylamino carbonates 2 (2BrPA release) in PBS, UV/vis or HPLC; type: physicochemical; conditions: PBS buffer, pH 7.4, text; fast-releasing derivatives (UV/vis values of Table 2), PBS buffer; read-out: half-life
quantityKind: half-life

samplesmiles=CC(C)NCCOC(=O)ONS(=O)(=O)c1ccccc1Br result="< 1 min"

* * *

assay: Decomposition of 2-bromo-benzenesulfonamidyl-alkylamino carbonates 2 (2BrPA release) in PBS, UV/vis or HPLC; assay type: physicochemical; details: pH 7.4; fast-releasing derivatives (UV/vis values of Table 2), PBS buffer; read-out: half-life
Structures can show the parent of a compound that is named as a salt.
quantityKind: half-life (s)

compound="COc1ccc(NCCOC(=O)ONS(=O)(=O)c2ccccc2Br)cc1 [hydrochloride]" numericreadout=48
